Every entry's value here was drawn from ChEMBL document CHEMBL4513216.

- Test system: Plasmodium berghei
- run-description: Screen against P. berghei liver stage (PbLuc), transformed with Luciferase, at 10uM
- Format: functional, HepG2
- run-parameters: tested at 10 uM
The campaign covered roughly 69,000 compounds. About 8,600 (12%) showed an effect of 50% or more. This excerpt belongs to a sample that is enriched for strong results.
INHIBITION class ranges: low: < 20%; moderate: ≥ 20% and < 50%; high: ≥ 50%

# compound, qualitative-label
records = [
    ("O=S(=O)(N1CCN(CC2CC2)CC1)N1CCCC1c1ccco1 (stereo not drawn)", "moderate"),
    ("Nc1nc(Sc2cccs2)cc(N2CC[C@H](CO)[C@H](O)C2)n1", "low"),
    ("Cc1cc(NC(=O)CN2CCc3cncnc3C2)no1", "low"),
    ("CC(C)(CNC(=O)CCCOc1cccc(F)c1)C(N)=O", "moderate"),
    ("O=C(CCc1nc2cccnc2[nH]1)Nc1ccc2c(c1)NC(=O)CO2", "low"),
]

Task: GET /class?item= Cc1ccc(-c2ccnc(N(C)CC3CCCN3C)n2)c(C)n1 (stereo not drawn)
Result: low

====

- System: Plasmodium berghei
- run-description: Screen against P. berghei liver stage (PbLuc), transformed with Luciferase, at 10uM
- Type: functional, HepG2
- run-parameters: tested at 10 uM
In all, about 69,000 compounds went through this assay and about 8,600 (12%) showed an effect of 50% or more. The entries come from a sample that favours strong results as a whole.
INHIBITION class ranges: one = under 10%, two = from 10% up to 40%, three = 40% and over

Look over these answered cases.
# molecule, qualitative-label
records = [
    ("CNS(=O)(=O)CCCN1CCCCCC1c1ccc(C)o1 (stereo not drawn)", "two"),
    ("CCN(c1ccc(C(=O)NCCN2CCOCC2)cc1)S(=O)(=O)CC", "two"),
    ("CC1CCC(NC(=O)CNC2(c3ccc(Br)cc3)CCOCC2)CC1 (stereo not drawn)", "two"),
    ("COc1cccc(CNCc2c(C(C)C)nn(C)c2N(C)C)c1OC", "one"),
    ("CC(C)(C)n1ncc2c1CCCC2NCc1ccsc1 (stereo not drawn)", "three"),
]

Task: GET /class?item= COc1ccc(NC(=O)NC(C)Cc2ccco2)cn1 (stereo not drawn)
Result: one

====

INHIBITION reference
- System: Plasmodium berghei
- run-description: Screen against P. berghei liver stage (PbLuc), transformed with Luciferase, at 10uM
- Type: functional, HepG2
- run-parameters: tested at 10 uM
Screen size: about 69,000 compounds; about 8,600 (12%) showed an effect of 50% or more. This is one part of a sample in which strong results are shown more often than they occur.
Form entry: value (%) — number only.

# compound, number
rows = [
    ("COCc1cc(NCCc2ccc(OC)cc2)n2nccc2n1", 32.2),
    ("Cc1cnc(C(=O)NCC2CCOc3ccccc3C2)cn1 (stereo unspecified)", 24.4),
    ("CCN(CC)CCNC(=O)c1cc(C(C)C)nc(N2CCCC2)n1", 15.8),
]

Task: Please look at this compound and report its INHIBITION: `COCCCNC(=O)c1cc(C(C)C)nc(N2CCCC2)n1`
Result: -23.8

Task: Please look at this compound and report its INHIBITION: `COCCNC(=O)c1cc(C(C)C)nc(N2CCCC2)n1`
Result: 16.8

====

- Test system: Plasmodium berghei
- run-description: Screen against P. berghei liver stage (PbLuc), transformed with Luciferase, at 10uM
- Assay type: functional, HepG2
- run-parameters: tested at 10 uM
Out of some 69,000 compounds screened, about 8,600 (12%) showed an effect of 50% or more. This excerpt belongs to a sample that is enriched for strong results.
measure: INHIBITION

Example compounds with recorded INHIBITION:
# compound, result
records = [
    ("O=C(Cc1c[nH]c(=O)[nH]c1=O)N1CCCCC1CCc1cccc(O)c1 (configuration not stated)", "57.6%"),
    ("Cc1csc(C(Cc2ccsc2)NC(=O)C2CCN(S(C)(=O)=O)CC2)n1 (configuration not stated)", "-11.7%"),
    ("CN1Cc2ccccc2CC2(CCN(Cc3nccn3C)CC2)C1=O", "34.5%"),
    ("CCN(CC)C(=O)Cn1ccc2cc(NC(=O)COC)ccc21", "-7.267%"),
    ("Cc1cc(NCCn2cccn2)n2ncnc2n1", "-38.8%"),
]

Now let's try a different one.
Task: Please look at this compound and report its INHIBITION: COCCc1noc(CN2CCCC2Cn2nc(C)cc2C)n1 (configuration not stated)
Result: 1.75%

====

- System: Plasmodium berghei
- run-description: Screen against P. berghei liver stage (PbLuc), transformed with Luciferase, at 10uM
- Type: functional, HepG2
- run-parameters: tested at 10 uM
The whole screen tested about 69,000 compounds, of which about 8,600 (12%) showed an effect of 50% or more. What follows is part of a selection rich in strong results, with near analogues and random picks from the rest.
# label = met if INHIBITION < 10% else not met

Look over these answered cases.
# compound, system-under-test, qualitative-label
records = [
    ("Cc1nn(C)c2c(N3CCSCC3)nc(C3CC3)nc12", "Plasmodium berghei", "not met"),
    ("COCCNc1cc(-c2ccccc2C(N)=O)c2cc[nH]c2n1", "Plasmodium berghei", "not met"),
    ("CCn1nnc2c1C(COCC(=O)N(C)C)CN(Cc1ccoc1)C2 (stereo not given)", "Plasmodium berghei", "not met"),
    ("Cc1ccoc1C(=O)N(CCN(C)C)Cc1ccccn1", "Plasmodium berghei", "met"),
    ("CCn1nc(C)c2nc(C)nc(NCCCn3cccn3)c21", "Plasmodium berghei", "not met"),
    ("COc1ccccc1CN1CC[C@]2(C[C@@H](OCC(=O)N(C)C)CO2)C1", "Plasmodium berghei", "not met"),
    ("Cc1nc(O)c2nnn(C[C@H]3CCCN3C(=O)c3ccc(F)cc3)c2n1", "Plasmodium berghei", "met"),
    ("Cc1ccc(O[C@@H]2C[C@H]3CN(C(=O)c4cccnc4)CCN3C2)cc1", "Plasmodium berghei", "met"),
]

Task: Bench note: check whether CNC(=O)COC1COC2(CCN(Cc3cccnc3)CC2)C1 (stereo not given) shows INHIBITION below 10%
Result: not met

Task: Bench note: check whether `Cc1nc(CN2CCN(C(=O)c3scnc3C)CC2)cs1` shows INHIBITION below 10%
Result: met

Task: Bench note: check whether `Cc1cnc(-c2nc(C3CCN(Cc4ccccc4Cl)CC3)no2)cn1` shows INHIBITION below 10%
Result: not met

Task: Bench note: check whether CC(C)NC(=O)CC1COC2(CCN(Cc3cccnc3)CC2)C1 (stereo not given) shows INHIBITION below 10%
Result: not met

====

- System: Plasmodium berghei
- run-description: Screen against P. berghei liver stage (PbLuc), transformed with Luciferase, at 10uM
- Assay type: functional, HepG2
- run-parameters: tested at 10 uM
Screen size: about 69,000 compounds; about 8,600 (12%) showed an effect of 50% or more. This excerpt belongs to a sample that is enriched for strong results.
INHIBITION reference
Form entry: value (%) — number only.

Task: Determine reported INHIBITION for `Cc1ccc(C(=O)N2CC(c3cccnc3)C2)cc1N1CCNC1=O` ; test system: Plasmodium berghei.
Result: 56.7

Task: Determine reported INHIBITION for `O=C(CCc1nccs1)N1CCN(c2ncccn2)CC1` ; test system: Plasmodium berghei.
Result: 26.1

Task: Determine reported INHIBITION for `CNC(=O)[C@@H]1[C@@H](OC(=O)Nc2ccccc2)C(=O)N(C)C12CCNCC2` ; test system: Plasmodium berghei.
Result: 35.8

Task: Determine reported INHIBITION for `COc1ccc(CN2C[C@@H]3OCCN(C)[C@@H]3C2)cc1` ; test system: Plasmodium berghei.
Result: 22.9

Task: Determine reported INHIBITION for `COc1ccc(C)c(NC(=O)NCc2ncnn2C)c1` ; test system: Plasmodium berghei.
Result: 51.1

Task: Determine reported INHIBITION for `Cc1cc(-n2c(C)cn(CN(C)Cc3ccccc3)c2=O)no1` ; test system: Plasmodium berghei.
Result: -5.64

Task: Determine reported INHIBITION for COc1cccc(CC2CN(C3CCCCC3)CCO2)c1 (stereo not given) ; test system: Plasmodium berghei.
Result: 36.2

Task: Determine reported INHIBITION for `O=C(CCc1nccs1)N1CCN(c2cccnn2)CC1` ; test system: Plasmodium berghei.
Result: 1.77

====

- Test system: Plasmodium berghei
- run-description: Screen against P. berghei liver stage (PbLuc), transformed with Luciferase, at 10uM
- Format: functional, HepG2
- run-parameters: tested at 10 uM
About 8,600 (12%) of roughly 69,000 compounds showed an effect of 50% or more. Many of the other results were omitted from the sample, so strong results are more common in it than they were.
# label = Yes if INHIBITION < 30% else No

Look over these answered cases.
# compound, qualitative-label
rows = [
    ("Cc1cnn(C2CCCN(C(=O)CCc3c(C)noc3C)C2)c1 (stereo not given)", "Yes"),
    ("O=C(COc1ccc(F)cc1)N1CCCSCC1CN1CCOCC1 (stereo not given)", "Yes"),
    ("O=C(CSc1nncs1)N1CCN(Cc2ccc(Cl)cc2)CC1", "No"),
]

Task: Bench note: check whether `CS(=O)(=O)NC1(CCc2ccc(NC(=O)C3CC3)nc2)CCCCC1` shows INHIBITION below 30%
Result: No

Task: Bench note: check whether `CNc1ncc(C(=O)N[C@H]2CN(CCCSC)C[C@@H]2C2CC2)cn1` shows INHIBITION below 30%
Result: Yes
